Molecular target: T1, human GIP receptor (human) (UniProt P48546)
T1 sequence (looked up): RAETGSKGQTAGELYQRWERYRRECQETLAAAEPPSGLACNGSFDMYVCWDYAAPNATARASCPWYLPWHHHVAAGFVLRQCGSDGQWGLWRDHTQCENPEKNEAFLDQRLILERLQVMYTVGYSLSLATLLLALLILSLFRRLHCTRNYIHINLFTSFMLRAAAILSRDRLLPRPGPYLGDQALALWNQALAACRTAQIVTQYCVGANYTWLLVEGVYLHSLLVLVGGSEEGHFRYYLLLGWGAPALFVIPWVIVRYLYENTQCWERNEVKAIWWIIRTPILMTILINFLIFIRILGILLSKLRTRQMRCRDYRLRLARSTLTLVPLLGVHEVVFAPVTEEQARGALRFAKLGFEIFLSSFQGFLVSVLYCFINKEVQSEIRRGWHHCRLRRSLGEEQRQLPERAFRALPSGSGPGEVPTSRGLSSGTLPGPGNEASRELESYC
Assay: cell-based or functional assay
Parameter threshold = 0.01 nM. Response is Condition met when cAMP EC50 meets or exceeds it, else Condition not met.

{"binder": "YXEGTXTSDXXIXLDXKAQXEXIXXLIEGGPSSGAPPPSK (Y-Aib-EGT-αMeF(2F)-TSD-4Pal-Aib-I-αMeL-LD-Orn-K((2-[2-(2-Amino-ethoxy)-ethoxy]-acetyl)3-(Y-Glu)-CO-(CH2)10-CH3)AQ-Aib-E-αMeF-I-(D-Glu)-αMeY-LIEGGPSSGAPPPSK((2-[2-(2-Amino-ethoxy)-ethoxy]-acetyl)3-(γ-Glu)-CO-(CH2)10-CH3)-NH2) [Example 439]", "classification": "Condition not met"}
{"binder": "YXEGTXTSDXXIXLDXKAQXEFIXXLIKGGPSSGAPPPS (Y-Aib-EGT-αMeF(2F)-TSD-4Pal-Aib-I-αMeL-LD-Orn-K((2-[2-(2-Amino-ethoxy)-ethoxy]-acetyl)-Aoc-CO-(CH2)12-CO2H)AQ-Aib-EFI-(D-Glu)-αMeY-LIK(((2-[2-(2-Amino-ethoxy)-ethoxy]-acetyl)-Aoc-CO-(CH2)12-CO2H)GGPSSGAPPPS-NH2)) [Example 465]", "classification": "Condition met"}
{"binder": "YXEGTXTSDKXIXLDGKAQXEFIXXLIEGGPSSGAPPPS (Y-Aib-EGT-αMeF(2F)-TSDK((2-[2-(2-Amino-ethoxy)-ethoxy]-acetyl)2-(γ-Glu)-CO-(CH2)10-CH3)-Aib-I-αMeL-LDGK((2-[2-(2-Amino-ethoxy)-ethoxy]-acetyl)2-(γ-Glu)-CO-(CH2)10-CH3)AQ-Aib-EFI-(D-Glu)-αMeY-LIEGGPSSGAPPPS-NH2) [Example 445]", "classification": "Condition not met"}
{"binder": "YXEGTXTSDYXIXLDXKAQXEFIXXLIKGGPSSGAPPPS (Y-Aib-EGT-αMeF(2F)-TSDY-Aib-I-αMeL-LD-Orn-K((2-[2-(2-Amino-ethoxy)-ethoxy]-acetyl)2-(γ-Glu)-CO-(CH2)10-CH3)AQ-Aib-EFI-(D-Glu)-αMeY-LIK((2-[2-(2-Amino-ethoxy)-ethoxy]-acetyl)2-(γ-Glu)-CO-(CH2)10-CH3)GGPSSGAPPPS-NH2) [Example 301]", "classification": "Condition met"}
{"binder": "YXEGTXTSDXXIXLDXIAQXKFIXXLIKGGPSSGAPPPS (Y-Aib-EGT-αMeF(2F)-TSD-4Pal-Aib-I-αMeL-LD-Orn-IAQ-Aib-K(2-[2-(2-Amino-ethoxy)-ethoxy]-acetyl)2-(γ-Glu)-(11-(4-carboxyphenoxy)undecanoyl)FI-(D-Glu)-αMeY-LIK((2-[2-(2-Amino-ethoxy)-ethoxy]-acetyl)2-(γ-Glu)-(11-(4-carboxyphenoxy)undecanoyl)GGPSSGAPPPS-NH2)) [Example 331]", "classification": "Condition met"}
{"binder": "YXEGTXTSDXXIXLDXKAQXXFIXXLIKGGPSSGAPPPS (Y-Aib-EGT-αMeF(2F)-TSD-4Pal-Aib-I-αMeL-LD-Orn-K((2-[2-(2-Amino-ethoxy)-ethoxy]-acetyl)2-(α-Glu)-(10-(4-carboxyphenoxy)decanoyl))AQ-Aib-Om-FI-(D-Glu)-αMeY-LIK((2-[2-(2-Amino-ethoxy)-ethoxy]-acetyl)2-(γ-Glu)-(10-(4-carboxyphenoxy)decanoyl))GGPSSGAPPPS-NH2) [Example 351]", "classification": "Condition met"}

The reported numbers originate from patent US20230265151A1.
